ASSAY REMARKS: F508del CFTR correction, initial screen, CFBE line, single point (AID 720511);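 further: cells transiently co-express mutant CFTR-F508del with the halide-sensitive YFP; corrector assay measuring rescue of mutant channel to the surface after 24 h compound exposure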
PARTICULARS: CFBE cells, YFP halide quenching, at 7.58 µM, % fluorescence drop versus neutral controls, stimulated with forskolin plus potentiator P3
The whole screen tested about 350,000 compounds, of which about 1,300 (0.37%) were called active.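 How the source made its calls: active means mean added fluorescence quench of at least 8% versus neutral control, with both replicates also reaching 8%; inconclusive means only one of the mean or replicate conditions met; inactive means mean below 8% and not both replicates reaching 8%.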 The entries come from a sample that favours actives as a whole.
Classes to choose from: label 1 = active, label 0 = inactive

Enquiry: I would be grateful if you could indicate the recorded call for COc1ccc(NC(=O)N(C)C[C@@H]2OCCCC[C@@H](C)Oc3ccc(NS(=O)(=O)c4cn(C)cn4)cc3C(=O)N([C@@H](C)CO)C[C@H]2C)cc1 .
Return: label 0

Enquiry: # lookup: test call for Cn1c(Nc2cccc(Cl)c2)nc2ccccc21
Return: label 0

Enquiry: Dear all, I need the recorded test outcome for COc1cc(C#Cc2ccc3cc(CCCO)oc(=O)c3c2)cc(OC)c1 , thank you.
Return: label 1

Enquiry: Please share the test call associated with CC(C)(C)C(=O)OCc1nc(-c2ccc(O)c(O)c2)cs1 .
Return: label 1

Enquiry: How did this test come out for O=C1CN(S(=O)(=O)Cc2ccccc2)C[C@@H]2[C@@H](c3ccc(C#Cc4cccc(F)c4)cc3)[C@@H](CO)N12 ?
Return: label 1

Enquiry: What outcome does the record of this test show for Nc1c(Cl)cc(S(N)(=O)=O)cc1S(N)(=O)=O ?
Return: label 0

Enquiry: Can you look up the reported call for Cc1ccc(C(=O)OCC(=O)NCc2cc(C)c(O)c(C)c2)cc1S(=O)(=O)N1CCCCC1 for me?
Return: label 1

Enquiry: Given CCNC(=O)C1CCCN(C(=O)c2cc(F)ccc2C)CC1 (stereo unspecified) , state the outcome it received in this test.
Return: label 1

Enquiry: Which outcome was entered for the molecule O=C1c2ccccc2C(=O)N1CCC#Cc1ccc2cc(C3(O)CCCCC3)oc(=O)c2c1 in this test?
Return: label 0

Enquiry: Called result for Cc1c(CCC(=O)O)c(=O)oc2cc(OCc3ccc(Br)cc3)ccc12
Return: label 0

Enquiry: Record lookup: outcome of this test for C[C@@H]1CCCCO[C@@H](CN(C)S(=O)(=O)c2ccccc2)[C@H](C)CN([C@H](C)CO)C(=O)c2cc(NC(=O)Nc3ccc4c(c3)OCO4)ccc2O1 ?
Return: label 0

Enquiry: // outcome(item) with item = Clc1ccc(Nc2ccc3ccccc3n2)cc1
Return: label 1

Enquiry: Hi team, can someone confirm the assay call for C[C@H](CO)N1C[C@H](C)[C@@H](CN(C)C(=O)C2CC2)Oc2ncc(-c3cccc(C#N)c3)cc2C1=O ?
Return: label 0

Enquiry: Record request — test call for NS(=O)(=O)c1cc(Cl)c(Cl)c(S(N)(=O)=O)c1
Return: label 1

Enquiry: Call for entry C/C=C/c1ccc2c(c1)O[C@H](CN(C)C(=O)Nc1ccccc1)[C@H](C)CN([C@@H](C)CO)S2(=O)=O :
Return: label 0

Enquiry: Recorded test call requested for CN(CC(=O)Nc1ccc(Cl)cc1)C(=O)CNC(=O)c1ccc2ccccc2c1
Return: label 0

Enquiry: Write down the call the test reported for this molecule. Item: Cc1ccc(S(=O)(=O)Nc2cccc3c2O[C@@H](CN(C)S(=O)(=O)c2ccc(C)cc2)[C@H](C)CN([C@@H](C)CO)C3=O)cc1
Return: label 0

Enquiry: For COc1ccc2c3c(n(C)c2c1)[C@H](CO)N(S(=O)(=O)c1ccc(C)cc1)CC31CN(C(=O)c2ccccn2)C1 , what call appears in the results of this test?
Return: label 0

Enquiry: Can you look up the reported call for CCNC(=O)C1CCCN(C(=O)c2ccc(OC)cc2OC)CC1 (stereo unspecified) for me?
Return: label 0

Enquiry: Name the outcome recorded for COc1ccc2c(C)c(CCC(=O)NC3CC3)c(=O)oc2c1C in the assay.
Return: label 0

Enquiry: Call for entry CCS(=O)(=O)N1CC(=O)N2[C@H](CO)[C@@H](c3ccc(C#Cc4cccc(F)c4)cc3)[C@@H]2C1 :
Return: label 0

Enquiry: I'd appreciate the recorded outcome for Cc1cc(C)c(/C=C2\C(=O)Nc3ccccc32)[nH]1 from this test.
Return: label 1

Enquiry: Dear colleague, could you share the recorded outcome for Cc1cccc(C(=O)NCC(=O)OCC(=O)N(C)CC(=O)Nc2ccccc2Cl)c1 when you have a moment?
Return: label 1

Enquiry: Write down the call the test reported for this molecule. Item: CS(=O)(=O)N1C[C@@H](O)COC[C@@H]2O[C@H](CC(=O)NC3Cc4ccccc4C3)CC[C@H]21
Return: label 0

Enquiry: Outcome logged for Cc1c(CCC(=O)O)c(=O)oc2c(C)c(OCc3ccccc3Cl)ccc12 in this assay:
Return: label 1

Enquiry: Record lookup: outcome of this test for O=C(C1CCOCC1)N1CC(=O)N2[C@H](CO)[C@@H](c3ccc(C#CC4CCCC4)cc3)[C@H]2C1 ?
Return: label 0

Enquiry: Any idea what this test logged for CN(c1ccc(O)cc1)c1nc(-c2cccnc2)cs1 ?
Return: label 0

Enquiry: Which outcome was entered for the molecule C[C@@H]1CCCCO[C@@H](CN(C)C(=O)Cc2ccccc2)[C@H](C)CN([C@@H](C)CO)C(=O)c2cc(NC(=O)Nc3ccc(F)cc3)ccc2O1 in this test?
Return: label 0

Enquiry: Name the outcome recorded for NS(=O)(=O)c1ccc(NC(=S)Nc2ccc(Br)c(Cl)c2)cc1 in the assay.
Return: label 0

Enquiry: Write down the call the test reported for this molecule. Item: CCCC(=O)Nc1ccc2c(c1)C(=O)N(C)C[C@@H](OC)[C@H](C)CN(C(C)=O)[C@H](C)CO2
Return: label 0

Enquiry: Could you please tell me the result logged for O=C1CN(S(=O)(=O)Cc2ccccc2)C[C@@H]2[C@@H](c3ccc(C#Cc4ccccc4)cc3)[C@@H](CO)N12 in this assay?
Return: label 0

Enquiry: Name the outcome recorded for CCCNC(=O)[C@@H]1[C@@H](CO)[C@@H]2Cn3c(cccc3=O)[C@H]1N2C(=O)Nc1cc(F)ccc1F in the assay.
Return: label 0

Enquiry: Outcome logged for C[C@@H]1CCCCO[C@@H](CN(C)CC2CC2)[C@@H](C)CN([C@H](C)CO)C(=O)c2cc(NC(=O)Nc3cccc4ccccc34)ccc2O1 in this assay:
Return: label 0

Enquiry: Status in this test for O=C(C[C@@H]1C=C[C@H](NC(=O)Nc2ccc3c(c2)OCO3)[C@H](CO)O1)NCc1ccccc1 ?
Return: label 0

Enquiry: Write down the call the test reported for this molecule. Item: CN(CC(=O)Nc1ccccc1Cl)C(=O)COc1cccc2c1OC(C)(C)C2
Return: label 0

Enquiry: Please state the recorded outcome for this molecule: COc1ccc(CNC(=O)COC(=O)c2ccc(C)c(S(=O)(=O)N3CCOCC3)c2)cc1OC
Return: label 0

* * *

ASSAY REMARKS: F508del CFTR correction, initial screen, CFBE line, single point (AID 720511);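 further: cells transiently co-express mutant CFTR-F508del with the halide-sensitive YFP; corrector assay measuring rescue of mutant channel to the surface after 24 h compound exposure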
PARTICULARS: CFBE cells, YFP halide quenching, at 7.58 µM, stronger effect = higher value, % fluorescence drop versus neutral controls, stimulated with forskolin plus potentiator P3
Out of some 350,000 compounds screened, about 1,300 (0.37%) were called active. For the sample, actives were picked, then their nearest neighbours and some compounds at random.
Answer each item with its documented activity (quench increase).
Give the value in % but do not write % after it.

Enquiry: Looking for the measured activity (quench increase) of O=C(C1CC1)N1CC(=O)N2[C@H](CO)[C@@H](c3ccc(-c4ccccc4F)cc3)[C@@H]2C1 , can you help?
Return: 11.5

Enquiry: Dear colleague, I am looking for the recorded activity (quench increase) of the following compound: Cc1ccc(S(=O)(=O)N(C)C[C@H]2OCCCC[C@@H](C)Oc3ccc(NC(=O)NC4CCCCC4)cc3C(=O)N([C@H](C)CO)C[C@@H]2C)cc1
Return: 0.861

Enquiry: So what does the record say about activity (quench increase) for C[C@@H](NC(=O)[C@@H]1[C@@H](CO)[C@@H]2Cn3c(ccc(C4=CCCCC4)c3=O)[C@@H]2N1C)c1ccccc1 ?
Return: 1.82

Enquiry: Query (compound): O=C(C1CCC1)N1CC(=O)N2[C@H](C1)[C@@H](c1ccc(-c3ccccc3F)cc1)[C@@H]2CO ; field requested: activity (quench increase)
Return: 1.31

Enquiry: Please look up its activity (quench increase): COc1ccc(C#Cc2ccc3c(c2)O[C@@H](CN(C)C(=O)Nc2cccc(OC)c2)[C@H](C)CN([C@H](C)CO)S3(=O)=O)cc1
Return: 9.4

Enquiry: For the compound Oc1ccc2ccccc2c1N=Nc1nccs1 , what activity (quench increase) is on record?
Return: 13.5

Enquiry: activity (quench increase) lookup needed for COc1ccc(NC(=O)N(C)C[C@H]2Oc3cc(C#CCN(C)C)ccc3S(=O)(=O)N([C@@H](C)CO)C[C@@H]2C)cc1 , thanks.
Return: -0.575

Enquiry: Entry under review: C/C=C/c1ccc2c(c1)O[C@@H](CN(C)C(=O)c1ccccn1)[C@H](C)CN([C@@H](C)CO)S2(=O)=O . Reported activity (quench increase)?
Return: -2.18

Enquiry: Could you share which activity (quench increase) value was measured for CCOc1ccc(-c2cc(C(=O)N/N=C/c3ccc(O)cc3)c3ccccc3n2)cc1 ?
Return: 12.2

Enquiry: Requested read-out: activity (quench increase). Entry: COc1cc(/C=N/NC(=O)c2cc(-c3ccccc3C)nc3ccccc23)cc(OC)c1O
Return: -3.23

Enquiry: Fill blank: measured activity (quench increase) of the compound Cc1c(C(=O)NC(C)C2CC3CCC2C3)cccc1[N+](=O)[O-] (configuration not stated) is ____.
Return: -0.675

Enquiry: GET /values?readout=activity (quench increase)&item= O=C(C1CCCC1)N1CC(=O)N2[C@H](C1)[C@@H](c1ccc(-c3ccccc3F)cc1)[C@@H]2CO
Return: -2.35

Enquiry: // query activity (quench increase) value for entry Cc1cc(C)c(C#N)c(Nc2cccc(Br)c2)n1
Return: -5.44

Enquiry: Consider the compound CO[C@H]1CN(C)C(=O)c2ccc(NC(=O)c3cccc(F)c3)cc2OC[C@H](C)N(CC2CC2)C[C@@H]1C and give its measured activity (quench increase).
Return: -0.247

Enquiry: Query: activity (quench increase); subject: C[C@@H]1CN([C@@H](C)CO)S(=O)(=O)c2ccc(C#Cc3ccccc3)cc2O[C@@H]1CN(C)C(=O)Nc1ccccc1
Return: 3.03

Enquiry: Would you kindly share the measured activity (quench increase) for CN1C(=O)c2cc(NC(=O)Nc3ccccc3Cl)ccc2OC[C@H]2O[C@@H](CC(=O)O)CC[C@H]21 ?
Return: 2.42

Enquiry: Could you tell me which activity (quench increase) is on file for C[C@H]1CN([C@@H](C)CO)C(=O)c2cc(/C=C/c3ccccc3)cnc2O[C@@H]1CN(C)C(=O)c1ccc(F)cc1 ?
Return: -2.58
